- Test system: NCI-H226 lung
- experimentalDetails: NCI tumour cell line growth inhibition, 48 h
# TGI per record follows
Response body: numeric value in µM, unit text excluded.

Some compounds with recorded TGI:
>  <testSmiles>
N#Cc1c(-c2ccc(Cl)cc2)cc(-c2ccc(Nc3ccnc4cc(C(F)(F)F)ccc34)cc2)nc1N

>  <quantityKind>
TGI

>  <number>
51.1

$$$$
>  <testSmiles>
CN(C)c1ccc(/C=c2/c3ccccc3n3c2cc(-c2ccc(Cl)cc2)[n+]3C)cc1

>  <quantityKind>
TGI

>  <number>
1.68

$$$$
>  <testSmiles>
COc1ccc2nc3c([N+](=O)[O-])ccc4c3c(c2c1)N(CCCN(C)C)C(=S)N4CCCN(C)C

>  <quantityKind>
TGI

>  <number>
22.4

$$$$
>  <testSmiles>
CCCc1cc2c(cc1O)CC[C@@H]1[C@@H]2CC[C@]2(C)[C@@H](O)CC[C@@H]12

>  <quantityKind>
TGI

>  <number>
27.5

$$$$

**Q:** Form: Entry = C=CS(=O)(=O)c1c2cc(OC)ccc2nc2ccc(OC)cc12 | System = NCI-H226 lung | TGI = ____
**A:** 35.1

**Q:** Form: Entry = COc1ccc(/C(Cl)=C(\C=O)c2ccc(Cl)c(Cl)c2)cc1 | System = NCI-H226 lung | TGI = ____
**A:** 36.4

**Q:** Form: Entry = CN1CCN(c2ccc(N3Cc4ccccc4OC4=C3C(=O)c3c(O)ccc(O)c3C4=O)cn2)CC1 | System = NCI-H226 lung | TGI = ____
**A:** 12

The reported measurements were obtained from PubChem BioAssay (NCI).
